Values from the NIST ThermoML archive (doi:10.1021/je900672g)

Recorded isobaric coefficient of expansion by entry
Test: isobaric coefficient of expansion
Conditions: 278.15 K; 35000 kPa; Liquid; DSC

Below, 3 molecules whose answers are already recorded.
> print(dat)
                       molecule                        measurename       result
1  CC[N+](=O)[O-] [nitroethane]  isobaric coefficient of expansion  0.00101 1/K
2  C[N+](=O)[O-] [nitromethane]  isobaric coefficient of expansion  0.00105 1/K
3    N#Cc1ccccc1 [benzonitrile]  isobaric coefficient of expansion  0.00078 1/K

Request: Dear colleague, I am looking for the recorded isobaric coefficient of expansion of the following molecule: CCC[N+](=O)[O-] [1-nitropropane]
Response: 0.000933 1/K

Request: Dear colleague, I am looking for the recorded isobaric coefficient of expansion of the following molecule: CCC#N [propanenitrile]
Response: 0.00107 1/K

---

Test: isobaric coefficient of expansion
Conditions: 348.15 K; 20000 kPa; Liquid; DSC
Recorded isobaric coefficient of expansion by entry

Below, 3 compounds whose answers are already recorded.
> print(dat)
                           compound       result
1  CCC[N+](=O)[O-] [1-nitropropane]  0.00107 1/K
2      CC[N+](=O)[O-] [nitroethane]  0.00112 1/K
3            CCC#N [propanenitrile]  0.00127 1/K

Request: Dear colleague, I am looking for the recorded isobaric coefficient of expansion of the following compound: O=[N+]([O-])c1ccccc1 [nitrobenzene]
Response: 0.000794 1/K

Request: Dear colleague, I am looking for the recorded isobaric coefficient of expansion of the following compound: N#Cc1ccccc1 [benzonitrile]
Response: 0.000818 1/K

Request: Dear colleague, I am looking for the recorded isobaric coefficient of expansion of the following compound: C[N+](=O)[O-] [nitromethane]
Response: 0.00122 1/K

---

Recorded isobaric coefficient of expansion by entry
Experiment: isobaric coefficient of expansion
Conditions: 308.15 K; 25000 kPa; Liquid; DSC

Below, 5 compounds whose answers are already recorded.
> print(dat)
                              compound                        measurename        result
1           N#Cc1ccccc1 [benzonitrile]  isobaric coefficient of expansion  0.000799 1/K
2  O=[N+]([O-])c1ccccc1 [nitrobenzene]  isobaric coefficient of expansion  0.000773 1/K
3     CCC[N+](=O)[O-] [1-nitropropane]  isobaric coefficient of expansion  0.000986 1/K
4         CC[N+](=O)[O-] [nitroethane]  isobaric coefficient of expansion   0.00106 1/K
5         C[N+](=O)[O-] [nitromethane]  isobaric coefficient of expansion   0.00112 1/K

Request: Dear colleague, I am looking for the recorded isobaric coefficient of expansion of the following compound: CCC#N [propanenitrile]
Response: 0.00114 1/K

---

Assay: isobaric coefficient of expansion
Settings: 308.15 K; 30000 kPa; Liquid; DSC
Recorded isobaric coefficient of expansion by entry

> print(dat)
             smilestext                        measurename        result
1  O=[N+]([O-])c1ccccc1  isobaric coefficient of expansion   0.00076 1/K
2                 CCC#N  isobaric coefficient of expansion   0.00111 1/K
3           N#Cc1ccccc1  isobaric coefficient of expansion  0.000788 1/K

Request: Dear colleague, I am looking for the recorded isobaric coefficient of expansion of the following compound: CC[N+](=O)[O-]
Response: 0.00104 1/K

Request: Dear colleague, I am looking for the recorded isobaric coefficient of expansion of the following compound: CCC[N+](=O)[O-]
Response: 0.000963 1/K

Request: Dear colleague, I am looking for the recorded isobaric coefficient of expansion of the following compound: C[N+](=O)[O-]
Response: 0.0011 1/K
